system: Fibroblast; assay: Incucyte cell viability with human fibroblast; type: toxicity, cell-based; conditions: 24 h, 10 µM, compound concentration 10 uM, replicate number 2, timepoint 24 hours; also: unitless GR value; below 1 slowed growth and below 0 cell loss
Recorded measurements of Growth Rate, one per entry
assayMetric: Growth Rate

structuresmilesstring=CCCCCCCCCCCCC/C=C/[C@@H](O)[C@@H](N)COP(=O)(O)O assaymetric="Growth Rate" testvalue=0.63
structuresmilesstring=COc1cc2c(Oc3ccc(NC(=O)C4(C(=O)Nc5ccc(F)cc5)CC4)cc3F)ccnc2cc1OCCCN1CCOCC1 assaymetric="Growth Rate" testvalue=-0.91
structuresmilesstring=Cl.O=C(O)c1cc(-c2ccc(C3CCNCC3)cc2)c2ccc(-c3ccc(C(F)(F)F)cc3)cc2c1 assaymetric="Growth Rate" testvalue=0.23

---

Below is a list of entries, each paired with its recorded Growth Rate value.
test system: U2OS; assay: Incucyte cell viability with U2OS; format: toxicity, cell-based; conditions: human, 24 h, 10 µM, compound concentration 10 uM, replicate number 2, timepoint 24 hours; also: unitless GR value; below 1 slowed growth and below 0 cell loss
assayMetric: Growth Rate

compound=CC1=C(C)C(=O)C(C(C)(C)CC(=O)N(CCCCSC[C@H]2O[C@@H](n3cnc4c(N)ncnc43)[C@@H]3OC(C)(C)O[C@@H]32)Cc2cccc(-c3ccc(Cl)cc3)c2)=C(C)C1=O assaymetric="Growth Rate" testvalue=0.92
compound=Cc1ccc(F)cc1C(=O)Nc1ccc(C(=O)N2Cc3cccn3Cc3ccccc32)c(Cl)c1 assaymetric="Growth Rate" testvalue=0.94
compound=OCCCNc1cc(-c2ccnc(Nc3cccc(Cl)c3)n2)ccn1 assaymetric="Growth Rate" testvalue=0.24
compound=O=c1ccn([C@@H]2O[C@H](COP(=O)([O-])OP(=O)([O-])OP(=O)([O-])O)[C@@H](O)[C@H]2O)c(=O)[nH]1.[Na+].[Na+].[Na+] assaymetric="Growth Rate" testvalue=0.94
compound=CC1=C(C)C(=O)C(C(C)(C)CC(=O)N(CCCCSC[C@H]2O[C@@H](n3cnc4c(N)ncnc43)[C@H](O)[C@@H]2O)Cc2cccc(-c3ccc(Cl)cc3)c2)=C(C)C1=O assaymetric="Growth Rate" testvalue=0.95
compound="C[C@@H](O[C@H]1OCCN(Cc2n[nH]c(=O)[nH]2)[C@H]1c1ccc(F)cc1)c1cc(C(F)(F)F)cc(C(F)(F)F)c1 [APREPITANT]" assaymetric="Growth Rate" testvalue=0.79
compound=CC[C@H](NC(=O)c1c(C)c(-c2ccccc2)nc2ccccc12)c1ccccc1 assaymetric="Growth Rate" testvalue=0.93
compound=N[C@@H]1c2cccnc2[C@H](OC(=O)N2CCC(n3c(=O)[nH]c4ncccc43)CC2)CC[C@H]1c1cccc(F)c1F assaymetric="Growth Rate" testvalue=0.87
compound=Cc1nnc2n1-c1sc(CCC(=O)N3CCOCC3)cc1C(c1ccccc1Cl)=NC2 assaymetric="Growth Rate" testvalue=0.93
compound=CCCCC[C@H](O)/C=C/[C@H]1[C@H](O)CC(=O)[C@@H]1CCCCCCC(=O)O assaymetric="Growth Rate" testvalue=0.97
compound=Cc1cc(Cn2cnc3c2C[C@@H](C(=O)O)N(C(=O)C(c2ccccc2)c2ccccc2)C3)ccc1N(C)C assaymetric="Growth Rate" testvalue=0.97
compound=CC(C)Oc1ccc(F)c(-c2cnc(N)c(C(=O)Nc3cnccc3N3CCC[C@@H](C(=O)O)C3)n2)c1 assaymetric="Growth Rate" testvalue=0.73
compound=CC(C)(O)C(=O)N1CCN(c2ccc(C(F)(F)F)c(C3=C(c4c[nH]c5ccccc45)C(=O)NC3=O)c2)CC1 assaymetric="Growth Rate" testvalue=0.58
compound=CNC(=O)[C@H]1O[C@@H](n2cnc3c(NCc4cccc(I)c4)ncnc32)[C@H](O)[C@@H]1O assaymetric="Growth Rate" testvalue=0.81

---

tested on: U2OS; experiment: Incucyte cell viability with U2OS; format: toxicity, cell-based; details: human, 24 h, 10 µM, compound concentration 10 uM, replicate number 1, timepoint 24 hours; also: unitless GR value; below 1 slowed growth and below 0 cell loss
Respond with condition met for Growth Rate values of 0.8 and above, condition not met for values below.

compound=O=c1ccn([C@@H]2O[C@H](COP(=O)([O-])OP(=O)([O-])OP(=O)([O-])O)[C@@H](O)[C@H]2O)c(=O)[nH]1.[Na+].[Na+].[Na+] systemtested=U2OS label="condition met"
compound=CCN1C(=CC(C)=O)Sc2ccc(OC)cc21 systemtested=U2OS label="condition met"
compound=CC(C)c1cc(-c2ccc(F)c3ccccc23)nc(N)n1 systemtested=U2OS label="condition not met"
compound=COc1ncc2cc(C(=O)Nc3cc(C(=O)NCc4cccc(Cl)c4)ccc3Cl)c(=O)[nH]c2n1 systemtested=U2OS label="condition not met"
compound=CN(C(=O)/C=C/c1ccoc1)[C@@H]1CC[C@@]2(O)[C@H]3Cc4ccc(O)c5c4[C@@]2(CCN3CC2CC2)[C@H]1O5 systemtested=U2OS label="condition not met"
compound=CC(C)(C)c1ccc(-c2coc3ccc(-c4cn[nH]c4)nc23)cc1 systemtested=U2OS label="condition not met"
compound="CCC(C)n1ncn(-c2ccc(N3CCN(c4ccc(OC[C@@H]5CO[C@@](Cn6cncn6)(c6ccc(Cl)cc6Cl)O5)cc4)CC3)cc2)c1=O.CCC(C)n1ncn(-c2ccc(N3CCN(c4ccc(OC[C@H]5CO[C@](Cn6cncn6)(c6ccc(Cl)cc6Cl)O5)cc4)CC3)cc2)c1=O (stereo partly drawn)" systemtested=U2OS label="condition not met"

---

Measured Growth Rate values are reported for all entries that follow.
tested on: U2OS; test: Incucyte cell viability with U2OS; format: toxicity, cell-based; details: human, 0 h, 10 µM, compound concentration 10 uM, replicate number 1, timepoint 0 hours; also: unitless GR value; below 1 slowed growth and below 0 cell loss
assayMetric: Growth Rate

compound=Cc1cc(O)c(-c2ccc([C@@H](C)CN(C)C)cc2)c2c1[nH]c(=O)c1sccc12 testvalue=-0.17
compound="O=c1ccn([C@@H]2O[C@H](COP(=O)([O-])OP(=O)([O-])OP(=O)([O-])OP(=O)([O-])OC[C@H]3O[C@@H](n4ccc(=O)[nH]c4=O)[C@H](O)[C@@H]3O)[C@@H](O)[C@H]2O)c(=O)[nH]1.[Na+].[Na+].[Na+].[Na+] [DIQUAFOSOL TETRASODIUM]" testvalue=-0.05
compound=Br.Br.N=C(N)NCCSC(=N)N testvalue=-0.2
compound="CCn1c(-c2nc3cc(C(=O)N4CCCC(N)C4)ccc3n2C)cc2ccccc21.Cl (stereo not given)" testvalue=-0.61
compound="C[C@H](CCC(=O)O)[C@H]1CC[C@H]2[C@@H]3CC[C@@H]4C[C@H](O)CC[C@]4(C)[C@H]3CC[C@]12C [LITHOCHOLIC ACID]" testvalue=0.9

---

test system: U2OS; assay: Incucyte cell viability with U2OS; type: toxicity, cell-based; conditions: human, 24 h, 10 µM, compound concentration 10 uM, replicate number 2, timepoint 24 hours; also: unitless GR value; below 1 slowed growth and below 0 cell loss
assayMetric: Growth Rate

compound=C=CCNc1ncnc2ccc(Br)cc12 systemtested=U2OS assaymetric="Growth Rate" testvalue=0.9
compound=CCCCNNC(=O)c1ccc(Br)cc1 systemtested=U2OS assaymetric="Growth Rate" testvalue=0.91
compound="C[C@@H]1CN(Cc2ccc(F)cc2)CCN1C(=O)COc1ccc(Cl)cc1NC(N)=O [BX 471 FREE BASE]" systemtested=U2OS assaymetric="Growth Rate" testvalue=0.89
compound=COc1ccccc1N1CCN(CCCCNC(=O)c2ccc3ccccc3c2)CC1.Cl systemtested=U2OS assaymetric="Growth Rate" testvalue=0.92
compound=N[C@@]1(C(=O)O)CC[C@H]2[C@H](C(=O)O)[C@H]21 systemtested=U2OS assaymetric="Growth Rate" testvalue=0.97
compound=COC[C@@H](CC(C)C)NC1=N/C(=C\c2ccc3ncsc3c2)C(=O)N1C systemtested=U2OS assaymetric="Growth Rate" testvalue=0.35
compound=CCCCOCCOc1nc(-c2ccc(C(=O)O)c(F)c2)sc1C systemtested=U2OS assaymetric="Growth Rate" testvalue=0.84
compound=CSc1cc2c(cc1C(F)(F)F)N(C(=O)Nc1cccnc1)CC2 systemtested=U2OS assaymetric="Growth Rate" testvalue=0.93

---

test system: HEK-293T; assay: Incucyte cell viability with HEK293T; assay type: toxicity, cell-based; conditions: human, 18 h, 10 µM, compound concentration 10 uM, replicate number 1, timepoint 18 hours; also: unitless GR value; below 1 slowed growth and below 0 cell loss
Measured Growth Rate accompanies every entry in the list below.
assayMetric: Growth Rate

molecule=Cc1cnc(CNCC2(F)CCN(C(=O)c3ccc(F)c(Cl)c3)CC2)nc1 systemtested=HEK-293T assaymetric="Growth Rate" testvalue=1
molecule=CCCn1c(=O)c2[nH]c(-c3ccc(OCC(=O)Nc4ccc(C#N)cc4)cc3)nc2n(CCC)c1=O systemtested=HEK-293T assaymetric="Growth Rate" testvalue=0.94
molecule="Cl.Clc1cccc(Cl)c1NC1=NCCN1 [CLONIDINE HYDROCHLORIDE]" systemtested=HEK-293T assaymetric="Growth Rate" testvalue=0.59
molecule=CN1CCC(c2c[nH]c3ccc(O)cc23)CC1 systemtested=HEK-293T assaymetric="Growth Rate" testvalue=0.98
molecule=COc1ccc2cc(S(=O)(=O)N[C@H](CC(=O)N[C@H](Cc3ccc(CN4[C@H](C)CCC[C@@H]4C)cc3)C(=O)N(C)C(C)C)c3ccc4c(c3)OCO4)ccc2c1.Cl systemtested=HEK-293T assaymetric="Growth Rate" testvalue=0.02
